All values here come from ChEMBL document CHEMBL3885881.

organism: Rattus norvegicus; experiment: DrugMatrix - Regimen: Daily Repeat; assay type: toxicity, organism-based, Sprague-Dawley; parameters: regimen Daily Repeat, gender Male, age 6-8 weeks; details: in vivo, po, 100 mg/kg, 120 h, tissue Blood, route oral GAVAGE, dose level Low, time 5 day, vehicle .5 % CMC
Listing: LYMPHOCYTE of selected compounds
State just the number; it will be interpreted in %.

compound="CC=Cc1ccc(O)c(OC)c1 [ISOEUGENOL]" numeric_result=83.33
compound="Nc1nc2c(c(=O)[nH]1)N(C=O)C(CNc1ccc(C(=O)N[C@@H](CCC(=O)O)C(=O)O)cc1)CN2 (some centres undefined) [LEUCOVORIN]" numeric_result=92.67
compound="C#C[C@]1(O)CC[C@H]2[C@@H]3CCC4=Cc5oncc5C[C@]4(C)[C@H]3CC[C@@]21C [DANAZOL]" numeric_result=88

Query block: Param item = "CC[C@]1(O)CC[C@H]2[C@@H]3CCC4=CCCC[C@@H]4[C@H]3CC[C@@]21C" ; retrieve measured LYMPHOCYTE.
Result block: 86.2
